test: In vitro inhibitory activity against ADP-induced human platelet aggregation
MEASURED PARAMETER: IC50 (µM)
Number in µM, nothing else.

Worked examples, 4 molecules total:
SMI: Cc1c(OCc2cccc3ccccc23)ccc2c(=O)cc(N3CCOCC3)oc12
UNIT NAME: µM
IC50: 13
//
SMI: Cc1cc2c(=O)cc(N3CCOCC3)oc2c(C)c1OCCN1CCN(C)CC1
UNIT NAME: µM
IC50: 1.4
//
SMI: Cc1c(OCCN2CCCC2)ccc2c(=O)cc(N3CCOCC3)oc12
UNIT NAME: µM
IC50: 4
//
SMI: Cc1c(OCc2cccnc2)ccc2c(=O)cc(N3CCOCC3)oc12
UNIT NAME: µM
IC50: 4

Kindly review the next molecule as well.
Reported IC50 for O=c1cc(N2CCOCC2)oc2cc(OCc3cccc4ccccc34)ccc12 was 41
